// data source = patent US20210060116A1

target: T1, Recombinant human p65 protein (r-p65) with DDK tag (catalog number TP320780) (human, UniProt Q04206 1-551); assay: score table: the mark stands in the column <3 of KD (uM)
T1 construct: mature; also called r-p65-DDK; human r-p65; not shown: DDK tag
T1 sequence (Q04206 whole entry): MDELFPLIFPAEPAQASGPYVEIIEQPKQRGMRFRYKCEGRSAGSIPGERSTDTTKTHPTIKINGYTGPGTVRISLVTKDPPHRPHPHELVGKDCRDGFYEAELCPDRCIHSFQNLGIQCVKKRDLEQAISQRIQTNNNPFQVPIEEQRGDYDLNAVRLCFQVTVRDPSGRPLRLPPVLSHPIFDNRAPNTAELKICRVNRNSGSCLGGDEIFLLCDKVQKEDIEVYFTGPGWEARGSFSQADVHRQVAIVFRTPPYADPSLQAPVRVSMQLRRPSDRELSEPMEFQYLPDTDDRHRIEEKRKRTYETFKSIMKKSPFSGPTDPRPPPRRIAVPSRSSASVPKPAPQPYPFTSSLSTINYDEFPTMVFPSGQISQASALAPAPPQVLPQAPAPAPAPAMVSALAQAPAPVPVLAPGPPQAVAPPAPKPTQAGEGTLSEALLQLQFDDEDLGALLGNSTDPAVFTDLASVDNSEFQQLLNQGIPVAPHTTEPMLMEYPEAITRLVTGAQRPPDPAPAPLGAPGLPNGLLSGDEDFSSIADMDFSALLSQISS
QUANTITY_MEASURED: Kd

Prompt: I would be grateful if you could share the reported Kd for Ac-EPAPLAPYG-NH2 (also called Analog 3; GA-2) [PGA-2] .
Response: < 3000 nM
